Please go through the items and note down their pEC50.
# System: Hepatitis C virus
# protocol: Antiviral activity against HCV genotype 3a S52 infected in human HuH7.5 cells assessed as reduction in viral replication incubated for 3 days by luciferase reporter gene assay
# Format: functional, organism-based, Hepacivirus hominis
# particulars: subtype 3a S52, Huh7.5, 72 h
Kindly note that pEC50 refers to -log10 of the concentration in mol/L and answer with the value alone.

Using the record for O=C(CN1C(=O)NC2(CCCCc3ccccc32)C1=O)NO (stereo not drawn) , report its pEC50.
7.10

Using the record for O=C(CN1C(=O)NC2(CCCc3ccccc32)C1=O)NO (stereo not drawn) , report its pEC50.
5.63

Using the record for O=C(CN1C(=O)NC2(CCc3ccccc32)C1=O)NO (stereo not drawn) , report its pEC50.
5.53
